Target: recombinant human SIRPα variant 1 protein (human) (UniProt P78324)
Sequence (P78324 31-370, change not shown): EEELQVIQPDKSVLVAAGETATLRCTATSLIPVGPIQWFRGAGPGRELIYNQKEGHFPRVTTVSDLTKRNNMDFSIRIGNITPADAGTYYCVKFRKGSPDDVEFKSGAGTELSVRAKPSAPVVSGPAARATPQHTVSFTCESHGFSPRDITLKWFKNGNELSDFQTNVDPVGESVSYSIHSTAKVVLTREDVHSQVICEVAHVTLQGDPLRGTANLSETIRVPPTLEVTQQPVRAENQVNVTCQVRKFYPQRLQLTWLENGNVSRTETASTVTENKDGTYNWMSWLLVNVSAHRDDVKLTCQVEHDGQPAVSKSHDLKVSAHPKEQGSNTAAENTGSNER
Assay: SPR Biacore 8K, antibody captured, antigen analyte
measured.quantity: kon (M⁻¹ s⁻¹)
I only need the number, in M⁻¹ s⁻¹, no unit after it.

Entry 248G3F6 (antibody, V domains shown) VH: EVQLQQSGAELVKPGASVKLSCTASGFNFEDTYMHWVKQRPDQGLEWIGRIDPADGDTKYNPKFQDKATITVDTSSNTAYLQLSSLTSEDTAVYYCVRGNYVNWGQGTTLTVSS VL: QIVLIQSPAIMSASPGERVTLTCRASSSVSSSYLYWYQQKPGSSPKLWIYSTSNLASGVPARFSGSGSGTSYSLTISSMEAEDAASYFCHQWYSYPRTFGGGTKLEIK ; kon = 187000

Data origin, for the record: patent US20240101716A1
